Target Or System: human MCHR1 (Homo sapiens)
Sequence (Q99705 whole entry): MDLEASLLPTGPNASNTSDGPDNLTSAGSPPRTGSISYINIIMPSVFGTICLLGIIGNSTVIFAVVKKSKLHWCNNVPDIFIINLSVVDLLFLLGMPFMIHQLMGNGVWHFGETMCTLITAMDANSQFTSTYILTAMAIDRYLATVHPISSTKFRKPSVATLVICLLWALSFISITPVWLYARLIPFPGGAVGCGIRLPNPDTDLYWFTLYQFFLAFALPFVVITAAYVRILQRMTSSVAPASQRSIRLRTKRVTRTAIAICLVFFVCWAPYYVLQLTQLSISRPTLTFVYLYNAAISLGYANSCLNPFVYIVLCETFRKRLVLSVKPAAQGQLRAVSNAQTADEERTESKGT
Structures can show the parent of a compound that is named as a salt.
Parameter: Ki (nM)

compound=O=C1c2sc(-c3ccc(Cl)cc3)nc2CCN1c1ccc2c(c1)ncn2CCN1CCCC1 assay_result=39.7

I = Cl.Cn1cc(CCN2CCCC2)c2ccc(N3CCc4nc(-c5ccc(Cl)cc5)sc4C3=O)cc21 [Example 47, hydrochloride]
II = COc1cc(-n2ccc3nc(-c4ccc(Cl)cc4)sc3c2=O)ccc1OCCN1CC(C)(C)OC(C)(C)C1 [Example 65, Hydrochloride]
Query string: Lower value for measured Ki? Options: I , II Selection: enter the item's label.
Result string: I
(I: 3.16 nM, II: 35.8 nM)

Source of measurements: patent US7902356B2
